TARGET_UNDER_TEST: Bcl-xL, Q07817
Sequence (Q07817 1-209): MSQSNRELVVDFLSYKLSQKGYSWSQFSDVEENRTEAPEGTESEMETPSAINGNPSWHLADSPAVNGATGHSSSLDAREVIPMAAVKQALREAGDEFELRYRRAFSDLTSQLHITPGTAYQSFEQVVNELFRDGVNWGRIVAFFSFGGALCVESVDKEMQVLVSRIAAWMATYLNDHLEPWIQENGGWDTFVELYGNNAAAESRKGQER
TEST_METHOD_NOTES: peptide SPOT array, c-Myc-tagged receptor at 1 uM or 100 nM, anti-c-Myc-Cy3
We'd kindly ask you to apply these SPOT signal as a fraction of Bim BH3's signal on the same receptor and array classes: bin 1 = under 0.04, bin 2 = from 0.04 up to 0.09, bin 3 = 0.09 and over

# count of solved cases: 10
VLAPVQLGKWDVLFCDEINLPDMDKY [DYNC1H1]	bin 2
TPSRSALSSELSLVGDTTGDTLEKFV [CREBBP]	bin 1
SVGGRGISSKLDSLADELKFVPIIGI [SACS]	bin 1
KIETTPESRYDAQIGDSVSLTCSTTG [VCAM1]	bin 2
PPDAHVLGKADEAAGQDFSLDLRSTG [CIITA]	bin 1
QQMHHNAATADAQRADMLRGLSPRES [NCOR2]	bin 1
ERLKGQLCDVLLIVGDQKFRAHKNVL [ZNF295]	bin 3
TGSLCEIATTLSFELDGFLWVKSGSV [CRB1]	bin 2
RAELTGLARRLADRLRKLQETNLRAV [RIMBP3]	bin 3
AKFLLYLGHSLSTWLDRMWHFAVSVF [SLC40A1]	bin 3

Next:
Problem: Could you tell me which band AYRGRGIAKHLAKAALDFVVEEDLKA [C17orf103] belongs to?
Solution: bin 3
